# Tested on: DeltatarO mutant
# ASSAY_PROTOCOL: S. aureus survival, RN4220 and DeltatarO strains – OD600, teichoic acid synthesis inhibitors, primary screen (AID 463173)
# RUN_CONDITIONS: S. aureus RN4220 wild type/DeltatarO growth, OD600, 18 h, active compounds read low, screened at 18.75 µg/mL (by protocol)
Among all 52,000 compounds or so, about 4,300 (8.3%) were called active. The sample as a whole holds a higher share of actives than the screen did.
Measured survival values are reported for all entries that follow.
Provide only the numeric value, understood in %.

Previously resolved entries follow.
Record CCOc1cc2c(cc1OCC)C(CC(=O)OC)N(C(=O)Nc1cc(C)cc(C)c1)CC2 (stereo not given) / DeltatarO mutant, survival recorded as 83

So the reported survival for CCOC(=O)CC1c2cc(OCC)c(OCC)cc2CCN1C(=O)Nc1cccc(Cl)c1 (stereo not given) , on DeltatarO mutant, turned out to be 41

Readout survival for Cc1cccc(NC(=O)C(=O)NCC(c2cccnc2)N2CCc3ccccc3C2)c1C (stereo not given) , test system DeltatarO mutant, was 86

Next:
Summary: CCOc1cc2c(cc1OCC)C(CC(=O)O)N(C(=O)Nc1ccc(Br)c(C)c1)CC2 (stereo not given) , DeltatarO mutant, survival = 81

Field survival (system: DeltatarO mutant) for entry COc1cccc(CN(CCO)Cc2ccccc2)c1OC = 91
